System: Fibroblast
assay_method_text: Multiplex assay against human fibroblast
Assay type: toxicity, cell-based
run_conditions: 12 h, 1 µM, compound concentration 1 uM, replicate 2
Label criterion not met if Population Healthy Nuclei (%) falls below 40%; label criterion met in every other case.

- molecule: "C=CCn1c(=O)c2cnc(Nc3ccc(N4CCN(C)CC4)cc3)nc2n1-c1cccc(C(C)(C)O)n1 [ADAVOSERTIB]"
  answer_label: "criterion not met"
- molecule: "O=C(Nc1ccc(-n2nc(-c3cccnc3)cc2C(F)(F)F)cn1)c1ccc(-c2ccccc2)c(F)c1 [BI 2049]"
  answer_label: "criterion met"
- molecule: "Cn1nc(C(F)(F)F)cc1-c1cnc(N2CCc3cc(S(=O)(=O)Nc4c(F)cc(Cl)cc4F)cc(N4CCCC4=O)c32)nc1 [TP-020]"
  answer_label: "criterion not met"
- molecule: "CCN1CCN(c2ccc(Nc3cc(N(C)C(=O)Nc4c(Cl)c(OC)cc(OC)c4Cl)ncn3)cc2)CC1 [INFIGRATINIB]"
  answer_label: "criterion not met"
- molecule: "S=C(NCCCc1c[nH]cn1)NCCCN(Cc1ccc(Cl)c(Cl)c1)c1ccc(Br)cn1"
  answer_label: "criterion met"
- molecule: "Cc1cn(-c2cc(NC(=O)c3ccc(C)c(Nc4nccc(-c5cccnc5)n4)c3)cc(C(F)(F)F)c2)cn1 [NILOTINIB]"
  answer_label: "criterion met"
- molecule: "Cc1ccc2nc(NCCN)c3ncc(C)n3c2c1.O=C(O)C(F)(F)F.O=C(O)C(F)(F)F"
  answer_label: "criterion not met"
- molecule: "NC(=O)c1cccc(-c2cc(Nc3ccc(OC(F)(F)F)cc3)ncn2)c1"
  answer_label: "criterion met"
- molecule: "CN(C)C(=O)C(CCN1CCC(O)(c2ccc(Cl)cc2)CC1)(c1ccccc1)c1ccccc1.Cl [LOPERAMIDE HYDROCHLORIDE]"
  answer_label: "criterion met"
- molecule: "CN[C@@H]1C[C@H]2O[C@@](C)([C@@H]1OC)n1c3ccccc3c3c4c(c5c6ccccc6n2c5c31)C(=O)NC4 [STAUROSPORINE]"
  answer_label: "criterion not met"

* * *

Test system: Fibroblast
assay_method_text: Multiplex assay against human fibroblast
Assay type: toxicity, cell-based
run_conditions: 12 h, 10 µM, compound concentration 10 uM, replicate 2

- smiles_string: "CCc1cccc(CC)c1NC(=O)c1nn(C)c2c1CCc1cnc(Nc3ccc(C(=O)NC4CCN(C)CC4)cc3OC(F)(F)F)nc1-2"
  measure_unit: "%"
  Population Pyknosed Nuclei (%): 17
- smiles_string: "CCCS(=O)(=O)Nc1ccc(F)c(C(=O)c2c[nH]c3ncc(Cl)cc23)c1F"
  measure_unit: "%"
  Population Pyknosed Nuclei (%): 8
- smiles_string: "CCCn1c(=O)c2[nH]c(-c3cnn(Cc4cccc(C(F)(F)F)c4)c3)nc2n(CC)c1=O"
  measure_unit: "%"
  Population Pyknosed Nuclei (%): 4

* * *

System: HEK-293T
assay_method_text: Multiplex assay against HEK293T
Assay type: toxicity, cell-based
run_conditions: human, 12 h, 10 µM, compound concentration 10 uM, replicate 2
reported_metric: Population Normal (%)

- compound: "O=C1N/C(=N/c2ccccc2F)S/C1=C\\c1ccc(C(=O)O)cc1"
  numeric_value: 96
- compound: "CCOc1cc2ncc(C#N)c(Nc3ccc(OCc4ccccn4)c(Cl)c3)c2cc1NC(=O)/C=C/CN(C)C"
  numeric_value: 72
- compound: "O=C(Nc1ccc(-n2nc(-c3cccnc3)cc2C(F)(F)F)cn1)c1ccc(-c2ccccc2)c(F)c1"
  numeric_value: 96
- compound: "CN1C2CCC1CC(OC(c1ccc(F)cc1)c1ccc(F)cc1)C2.Cl (stereo not given)"
  numeric_value: 93
- compound: "S=C(NCCCc1c[nH]cn1)NCCCN(Cc1ccc(Cl)c(Cl)c1)c1ccc(Br)cn1"
  numeric_value: 93
- compound: "CN1CCN(C(=O)C(C)(C)c2ccc(C(=O)Nc3cn4cc(-c5cc(C(C)(C)C)cc(C(C)(C)C)c5)ccc4n3)cc2)CC1"
  numeric_value: 95
- compound: "O=C(Nc1cccnn1)N1CCC(=Cc2cccc(Oc3ccc(C(F)(F)F)cn3)c2)CC1"
  numeric_value: 98
- compound: "COc1cc2ncnc(Nc3ccc(F)c(Cl)c3)c2cc1NC(=O)/C=C/CN1CCCCC1 [DACOMITINIB ANHYDROUS]"
  numeric_value: 97
- compound: "CNC(=O)c1ccc(Nc2nc(OC3CCCC3)c3c(-c4ccc5nc(C)oc5c4)c[nH]c3n2)c(OC)c1"
  numeric_value: 94
- compound: "Cc1cn(-c2cc(NC(=O)c3ccc(C)c(Nc4nccc(-c5cccnc5)n4)c3)cc(C(F)(F)F)c2)cn1"
  numeric_value: 96

# credit: ChEMBL document CHEMBL4689842
